B1: tRNA (parent)
chain: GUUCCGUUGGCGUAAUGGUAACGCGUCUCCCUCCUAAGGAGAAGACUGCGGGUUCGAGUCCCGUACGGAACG

variants of: B1; test: yeast fitness relative to wild type (ratio to wild type); higher = fitter; tRNA-Arg(CCU), competitive growth, 37 C, YPD
Fewer inactive variants are shown than the library holds.
Entries and their yeast fitness values follow.
Lab note: write the figure by itself, no unit.

{"Variant description": "A15U A57C A65U", "yeast fitness": 0.794}
{"Variant description": "U3A G25A U26G", "yeast fitness": 0.535}
{"Variant description": "C11G U26A", "yeast fitness": 0.583}
{"Variant description": "G6A C29A", "yeast fitness": 0.647}
{"Variant description": "C4A G39C G44C G52C", "yeast fitness": 0.685}

Give the measured yeast fitness of A15C U47A A65C .
0.561

Any idea what yeast fitness was measured for C24U U53A ?
0.626

meta.source: the RNAGym collection of RNA variant scans (doi:10.1126/science.aae0568)
